Recorded GI50 by entry
# Tested on: SF-295
# Method Description: NCI tumour cell line growth inhibition, 48 h
The source made the active and inactive calls. No stated cut-off is given here; in the data, active = GI50 up to about 1.1 µM and inactive = higher.

Examples from the recorded data:
CCOC(=O)/C(=C\NC(C)(C)CO)c1nc2ccccc2[nH]1    64.6 µM (inactive)
CCOC(=O)C(c1c[nH]c2ccccc12)(c1c[nH]c2ccccc12)c1c[nH]c2ccccc12    30.4 µM (inactive)
COc1ccc2cc1Oc1ccc(cc1)CC1c3c(cc(OC)c4c3Oc3cc5c(cc3O4)CCNC5C2)CCN1C (stereo unspecified)    1.91 µM (inactive)
COc1ccc(C(=O)/C=C/c2ccc(OCC#N)cc2)cc1OC    > 10 µM (inactive)
CC1=C(C#N)C(C#N)(C#N)C(NN(C)C)C1 (stereo unspecified)    24.5 µM (inactive)

Entry N#Cc1nc(COCCOCc2ccccc2)oc1N , GI50 reported as > 100 µM (inactive)

Entry CC1(O)C2(c3ccccc3)CCC[N+]1(C)CC2 (stereo unspecified) , GI50 reported as > 100 µM (inactive)

Entry COc1cc2c(cc1OC(=O)CC(C)O)C1C(OC2=O)C(OC(C)=O)C=C2CCN(C)[C@H]21 (stereo partly specified) , GI50 reported as 20.7 µM (inactive)

Entry Cc1cc(NCCCCCCCCNc2cc(C)nc3cc(N(C)C)ccc23)c2ccc(N(C)C)cc2n1 , GI50 reported as 8.65 µM (inactive)

Entry COc1cccc(C23CCCC(C2)NCC3Br)c1OC (stereo unspecified) , GI50 reported as 38 µM (inactive)

Entry CCSC1=N/C(=C\c2ccco2)C(NN)=N1 , GI50 reported as > 50 µM (inactive)

Values were extracted from ChEMBL document CHEMBL1201862.
